# System Name: clathrin heavy chain NTD (amino acids 1–364) – amphiphysin 1 B/C domain protein–protein interaction (NTD‐PPI) (Homo sapiens, UniProt Q00610)
# Construct: GST‐tagged clathrin heavy chain NTD (amino acids 1–364); made in house
# Sequence (Q00610 1-364): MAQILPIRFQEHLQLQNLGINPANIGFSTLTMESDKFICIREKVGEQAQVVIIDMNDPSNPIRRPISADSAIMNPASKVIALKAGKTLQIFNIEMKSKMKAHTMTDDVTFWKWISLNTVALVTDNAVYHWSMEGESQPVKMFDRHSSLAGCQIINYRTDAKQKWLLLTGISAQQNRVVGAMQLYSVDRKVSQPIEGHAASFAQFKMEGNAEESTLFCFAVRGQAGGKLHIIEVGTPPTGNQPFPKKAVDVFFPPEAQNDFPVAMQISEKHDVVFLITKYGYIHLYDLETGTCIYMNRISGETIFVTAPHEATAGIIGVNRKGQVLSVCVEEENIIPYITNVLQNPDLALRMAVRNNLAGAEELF
# Test Protocol: ELISA-based clathrin inhibitor binding assay (NTD-PPI)
# Condition Context: Table 1, library 1; ELISA, average of duplicate measurements (n=2); read-out: NTD‐PPI IC50
Observable: pIC50
The quantity pIC50 is defined as the negative base-10 logarithm of the molar concentration.

// query Please look up its pIC50: `CC(C)c1ccc(/C=C2\SC(NS(=O)(=O)c3cccc4ccccc34)=NC2=O)cc1`
// result 5.39

// query Try this molecule next: `O=C1N=C(NS(=O)(=O)c2cccc3ccccc23)S/C1=C\c1cccc(C(=O)O)c1`
// result 5.28

// query Consider next the molecule `N#Cc1cccc(/C=C2\SC(NS(=O)(=O)c3cccc4ccccc34)=NC2=O)c1` in the same way.
// result 5.24

// query // query: `O=C1N=C(NS(=O)(=O)c2cccc3ccccc23)S/C1=C\c1ccccc1[N+](=O)[O-]`
// result 3.82

// query Again, but for `CC(=O)Nc1ccc(/C=C2\SC(NS(=O)(=O)c3cccc4ccccc34)=NC2=O)cc1`
// result 5.46

// query Lookup `O=C1N=C(NS(=O)(=O)c2cccc3ccccc23)SC1=Cc1cccc(-c2ccccc2)c1`
// result 5.40

// query Try `O=C1N=C(NS(=O)(=O)c2cccc3ccccc23)S/C1=C\c1ccccc1O` next.
// result 5.68

// query One more molecule: `O=C1N=C(NS(=O)(=O)c2cccc3ccccc23)S/C1=C\c1ccc([N+](=O)[O-])cc1`
// result 5.28

// query # iterate: `O=C1N=C(NS(=O)(=O)c2cccc3ccccc23)S/C1=C\c1ccc(O)cc1`
// result 5.25

// query What about this molecule? `O=C1N=C(NS(=O)(=O)c2cccc3ccccc23)S/C1=C\c1ccc(C(=O)O)cc1`
// result 5.13
